# system tested: human GABA A receptor α5β3γ2 (GABA Aa5) (Homo sapiens, UniProt P18507+P31644)
# Construct: expressed in transfected cells; host or cells: HEK293 cells, transiently transfected; membranes prepared
# assay overview: [3H]flumazenil competition binding, HEK293 cells expressing human receptors
# condition context: displacement of [3H]flumazenil 0.5 nM; HEK293 transiently transfected human receptors; means of two determinations; read-out: hKi (GABA Aa5)
Kindly supply the reported pKi values for the records listed here.
Give bare numbers, as −log10 of the molar value.

Here's what some known entries look like.
[
  {
    "compound": "Cn1nnc(-c2ccc(F)cc2)c1-c1cn(-c2ccc(C(=O)NC3(C)COC3)cc2)cn1 [Example 5]",
    "pKi": 7.62
  },
  {
    "compound": "Cn1nnc(-c2ccccc2F)c1-c1cn(-c2ccc(C(=O)NN3CCOCC3)cn2)cn1 [Example 28]",
    "pKi": 7.49
  },
  {
    "compound": "Cn1nnc(-c2ccc(F)cc2)c1-c1cn(-c2ccc(C(=O)N3CC4(COC4)C3)cn2)cn1 [Example 14]",
    "pKi": 7.42
  },
  {
    "compound": "Cn1nnc(-c2ccc(F)cc2)c1-c1cn(-c2ccc(C(N)=O)cn2)cn1 [Example 16]",
    "pKi": 7.92
  },
  {
    "compound": "Cc1nnn(-c2ccc(F)cc2)c1-c1cn(-c2ccc(C(=O)N3CC4(COC4)C3)cn2)cn1 [Example 39]",
    "pKi": 7.45
  }
]

In: Name the recorded pKi for Cc1nnn(-c2ccc(F)cc2)c1-c1cn(-c2ccc(C(=O)NC3CC3)cn2)cn1 [Example 42] .
Out: 8.49

* * *

# system tested: human GABA A receptor α5β3γ2 (GABA Aa5) (Homo sapiens, UniProt P18507+P31644)
# Construct: expressed in transfected cells; host or cells: HEK293 cells, transiently transfected; membranes prepared
# assay overview: [3H]flumazenil competition binding, HEK293 cells expressing human receptors
# condition context: displacement of [3H]flumazenil 0.5 nM; HEK293 transiently transfected human receptors; means of two determinations; read-out: hKi (GABA Aa5)
Categories are defined by ranges of Ki, namely A = under 20 nM, B = from 20 nM up to 50 nM, C = 50 nM and over

[
  {
    "molecule smiles": "CC(=O)c1ccc(-n2cnc(-c3c(C)nnn3-c3ccc(F)cc3)c2)cc1",
    "assigned label": "B"
  },
  {
    "molecule smiles": "CC(C)NC(=O)c1ccc(-n2cnc(-c3c(-c4ccccc4Cl)nnn3C)c2)nc1",
    "assigned label": "C"
  },
  {
    "molecule smiles": "Cn1nnc(-c2ccccc2F)c1-c1cn(-c2ccc(C(F)(F)F)cc2)cn1",
    "assigned label": "C"
  }
]

In: Where would "Cc1nnn(-c2ccccc2F)c1-c1cn(-c2ccc(C(=O)NC3(C)COC3)cn2)cn1" land among the classes by reported Ki?
Out: A

In: Also "Cn1nnc(-c2ccccc2F)c1-c1cn(-c2ccc(C(=O)N3CC4(COC4)C3)cn2)cn1" ?
Out: C

* * *

# system tested: human GABA A receptor α5β3γ2 (GABA Aa5) (Homo sapiens, UniProt P18507+P31644)
# Construct: expressed in transfected cells; host or cells: HEK293 cells, transiently transfected; membranes prepared
# assay overview: [3H]flumazenil competition binding, HEK293 cells expressing human receptors
# condition context: displacement of [3H]flumazenil 0.5 nM; HEK293 transiently transfected human receptors; means of two determinations; read-out: hKi (GABA Aa5)
Could you please report measured pKi for the items listed next?
Give bare numbers, as −log10 of the molar value.

[
  {
    "compound": "Cn1nnc(-c2ccccc2F)c1-c1cn(-c2ccc(C(=O)NC3CCOCC3)cn2)cn1 [Example 22]",
    "pKi": 7.36
  }
]

Below are 5 compounds. Give each one its pKi.
1. Cn1nnc(-c2ccccc2Cl)c1-c1cn(-c2ccc(C(N)=O)cn2)cn1 [Example 19]
2. CC(C)NC(=O)c1ccc(-n2cnc(-c3c(-c4ccc(F)cc4)nnn3C)c2)nc1 [Example 11]
3. COC(=O)c1ccc(-n2cnc(-c3c(C)nnn3-c3ccc(F)cc3)c2)nc1 [Example 35]
4. Cc1nnn(-c2ccc(F)cc2)c1-c1cn(-c2ccc(C(N)=O)cn2)cn1 [Example 40]
5. Cc1nnn(-c2ccccc2F)c1-c1cn(-c2ccc(C(=O)N3CC4(COC4)C3)cn2)cn1 [Example 49]

Out:
1: 7.18; 2: 7.83; 3: 7.58; 4: 7.90; 5: 7.05

The following compounds each have a reported value; give each one's pKi.
1. Cn1nnc(-c2ccccc2F)c1-c1cn(-c2ccc([N+](=O)[O-])cc2)cn1 [Example 9]
2. Cc1nnn(-c2ccccc2F)c1-c1cn(-c2ccc(C(=O)NN3CCOCC3)cn2)cn1 [Example 51]

Out:
[7.12, 7.30]

* * *

Consider the following compounds; for each one, report its Ki.
# system tested: human GABA A receptor α5β3γ2 (GABA Aa5) (Homo sapiens, UniProt P18507+P31644)
# Construct: expressed in transfected cells; host or cells: HEK293 cells, transiently transfected; membranes prepared
# assay overview: [3H]flumazenil competition binding, HEK293 cells expressing human receptors
# condition context: displacement of [3H]flumazenil 0.5 nM; HEK293 transiently transfected human receptors; means of two determinations; read-out: hKi (GABA Aa5)
Give bare numbers, in nM.

Some compounds with recorded Ki:
[
  {
    "compound": "CC(=O)c1ccc(-n2cnc(-c3c(-c4ccc(F)cc4)nnn3C)c2)cc1 [Example 1]",
    "recorded number": 27.2
  },
  {
    "compound": "Cc1nnn(-c2ccccc2F)c1-c1cn(-c2ccc(C(=O)NC3CCOCC3)cn2)cn1 [Example 46]",
    "recorded number": 49
  },
  {
    "compound": "Cc1nnn(-c2ccc(F)cc2)c1-c1cn(-c2ccc(C(F)(F)F)cc2)cn1 [Example 31]",
    "recorded number": 49.2
  }
]

Kindly consider the entry below.
In: Form field: Ki recorded for Cn1nnc(-c2ccc(F)cc2)c1-c1cn(-c2ccc(C(=O)NC3(C)COC3)cn2)cn1 [Example 13] with human GABA A receptor α5β3γ2 (GABA Aa5) (Homo sapiens, UniProt P18507+P31644) (enter value)
Out: 14.6

* * *

# system tested: human GABA A receptor α5β3γ2 (GABA Aa5) (Homo sapiens, UniProt P18507+P31644)
# Construct: expressed in transfected cells; host or cells: HEK293 cells, transiently transfected; membranes prepared
# assay overview: [3H]flumazenil competition binding, HEK293 cells expressing human receptors
value type: Ki (nM)
One number for each entry, in nM.

In: Which value of Ki has been reported for "CC(=O)c1ccc(-n2cnc(-c3c(-c4ccccc4F)nnn3C)c2)cc1" in the records?
Out: 29.6

* * *

# system tested: human GABA A receptor α5β3γ2 (GABA Aa5) (Homo sapiens, UniProt P18507+P31644)
# Construct: expressed in transfected cells; host or cells: HEK293 cells, transiently transfected; membranes prepared
# assay overview: [3H]flumazenil competition binding, HEK293 cells expressing human receptors
# condition context: displacement of [3H]flumazenil 0.5 nM; HEK293 transiently transfected human receptors; means of two determinations; read-out: hKi (GABA Aa5)
value type: pKi
Numbers only, as −log10 of the molar value.

Consider the worked cases shown below.
[
  {
    "molecule smiles": "Cn1nnc(-c2ccc(F)cc2)c1-c1cn(-c2ccc(C(=O)NC3CCOCC3)cn2)cn1",
    "pKi": 7.48
  },
  {
    "molecule smiles": "Cn1nnc(-c2ccc(F)cc2)c1-c1cn(-c2ccc(C(=O)N3CC4(COC4)C3)cc2)cn1",
    "pKi": 7.29
  },
  {
    "molecule smiles": "Cn1nnc(-c2ccccc2F)c1-c1cn(-c2ccc(C(=O)NC3CC3)cn2)cn1",
    "pKi": 8.02
  }
]

For each listed entry, give its pKi.
1. COC(=O)c1ccc(-n2cnc(-c3c(-c4ccccc4F)nnn3C)c2)nc1
2. Cc1nnn(-c2ccccc2F)c1-c1cn(-c2ccc(C(=O)NC3CC3)cn2)cn1
3. CC(C)NC(=O)c1ccc(-n2cnc(-c3c(-c4ccccc4F)nnn3C)c2)nc1
4. COC(=O)c1ccc(-n2cnc(-c3c(C)nnn3-c3ccccc3F)c2)cc1

Out:
7.79
7.96
7.26
7.46

Value sought for every listed compound: pKi.
1. Cc1nnn(-c2ccc(F)cc2)c1-c1cn(-c2ccc(C(=O)NC(C)(C)CO)cn2)cn1
2. Cn1nnc(-c2ccccc2F)c1-c1cn(-c2ccc(C(F)(F)F)cn2)cn1
3. Cc1nnn(-c2ccccc2F)c1-c1cn(-c2ccc(C(=O)NC(C)(C)CO)cn2)cn1
4. Cc1nnn(-c2ccccc2F)c1-c1cn(-c2ccc(C(=O)NC(C)C)cn2)cn1

Out:
1: 7.68; 2: 7.19; 3: 7.29; 4: 7.82

# per-item lookup of pKi; items listed below
1. Cc1nnn(-c2ccc(F)cc2)c1-c1cn(-c2ccc(C(=O)N3CCS(=O)(=O)CC3)cn2)cn1
2. CC(C)NC(=O)c1ccc(-n2cnc(-c3c(-c4ccc(F)cc4)nnn3C)c2)cc1
3. Cc1nnn(-c2ccc(F)cc2)c1-c1cn(-c2ccc(C(=O)NN3CCOCC3)cn2)cn1
4. Cc1nnn(-c2ccc(F)cc2)c1-c1cn(-c2ccc(C(=O)NC3CCOCC3)cn2)cn1
5. Cc1nnn(-c2ccccc2F)c1-c1cn(-c2ccc(C(=O)NCC3CC3)cn2)cn1
6. Cn1nnc(-c2ccc(F)cc2)c1-c1cn(-c2ccc(C(=O)NC3CCOCC3)cc2)cn1

Out:
1. 7.54
2. 7.68
3. 7.16
4. 7.59
5. 7.49
6. 7.44

List the reported pKi of each compound below.
1. Cc1nnn(-c2ccc(F)cc2)c1-c1cn(-c2ccc(C(F)(F)F)cn2)cn1
2. Cn1nnc(-c2ccccc2F)c1-c1cn(-c2ccc(C(=O)NCC(C)(C)O)cn2)cn1
3. Cn1nnc(-c2ccccc2F)c1-c1cn(-c2ccc(C(=O)NC3(C)COC3)cn2)cn1
4. Cn1nnc(-c2ccc(F)cc2)c1-c1cn(-c2ccc(C(N)=O)cc2)cn1
5. COC(=O)c1ccc(-n2cnc(-c3c(-c4ccc(F)cc4)nnn3C)c2)cc1
6. Cn1nnc(-c2ccc(F)cc2)c1-c1cn(-c2ccc(C(F)(F)F)cn2)cn1

Out:
1. 7.34
2. 7.67
3. 7.79
4. 7.73
5. 7.39
6. 7.09

Hey, quick one: what's pKi for each of these?
1. Cn1nnc(-c2ccccc2F)c1-c1cn(-c2ccc(C(=O)O)cn2)cn1
2. Cc1nnn(-c2ccccc2F)c1-c1cn(-c2ccc(C(N)=O)cn2)cn1
3. Cc1nnn(-c2ccc(F)cc2)c1-c1cn(-c2ccc(C(=O)NC3(C)COC3)cn2)cn1
4. Cn1nnc(-c2ccccc2F)c1-c1cn(-c2ccc(C(N)=O)cn2)cn1

Out:
1. 7.07
2. 7.75
3. 8.02
4. 7.71

In: What does the data say about its pKi? Entry: "COC(=O)c1ccc(-n2cnc(-c3c(-c4ccccc4Cl)nnn3C)c2)nc1"
Out: 7.16
